- System: Echinochloa oryzoides (Ard.) Fritsch.
- experimentalProtocol: Preemergence weed control under flooded paddy conditions, ECHORC (Watergrass (Calif.)); further: meaning of each grade not given here
- Assay type: in vivo
- particulars: Rate 0.1250 kg/ha; preemergence, flooded paddy; rated three to four weeks after treatment
reportedProperty: herbicidal effect rating, ECHORC
// no unit string in output, number only

QUERY: Item CNC(=O)OCc1nsc2ccc(-n3c(=O)cc(C(F)(F)F)n(C)c3=O)cc12 [Example 374] has what recorded herbicidal effect rating, ECHORC?
RESULT: 4.0

QUERY: Entry to check: C#CCC(c1nsc2ccc(-n3c(=O)cc(C(F)(F)F)n(C)c3=O)cc12)S(C)(=O)=O (stereo not shown) [Example 603]
RESULT: 6.0

QUERY: Entry to check: Cn1c(C(F)(F)F)cc(=O)n(-c2ccc3snc(COC(=O)c4ccccc4)c3c2)c1=O [Example 364]
RESULT: 6.0

QUERY: Entry to check: Cn1c(C(F)(F)F)cc(=O)n(-c2ccc3snc(COCc4ccc([N+](=O)[O-])cc4)c3c2)c1=O [Example 589]
RESULT: 4.0

QUERY: Entry to check: Cn1c(C(F)(F)F)cc(=O)n(-c2ccc3snc(C(=O)NCC(=O)O)c3c2)c1=O [Example 579]
RESULT: 4.0

QUERY: Entry to check: Cn1c(C(F)(F)F)cc(=O)n(-c2ccc3snc(COS(=O)(=O)c4ccccc4)c3c2)c1=O [Example 382]
RESULT: 4.0

QUERY: Entry to check: Cn1c(C(F)(F)F)cc(=O)n(-c2ccc3snc(C(C#N)=Cc4ccccn4)c3c2)c1=O [Example 592]
RESULT: 4.0

---

- System: Cyperus serotinus, Rottb.
- experimentalProtocol: Preemergence weed control under flooded paddy conditions, CYPSE (Flatsedge); further: meaning of each grade not given here
- Assay type: in vivo
- particulars: Rate 0.2500 kg/ha, preemergence, rated 3-4 weeks after treatment
I'd appreciate it if you could supply herbicidal effect rating, CYPSE values for the items below.
// no unit string in output, number only

QUERY: Item CCOC(=O)C1CCC(OC(=O)COc2ccc(C)cc2-c2nsc3ccc(-n4c(=O)cc(C(F)(F)F)n(C)c4=O)cc23)CC1 (single isomer, unassigned; isomer a) [Example 524] has what recorded herbicidal effect rating, CYPSE?
RESULT: 6.0

QUERY: Entry to check: C=CS(=O)(=O)NC(=O)COc1ccccc1-c1nsc2ccc(-n3c(=O)cc(C(F)(F)F)n(C)c3=O)cc12 [Example 557]
RESULT: 9.0

QUERY: Entry to check: CC/C=C/CCCCCCCCCCOC(=O)COc1ccc(C)cc1-c1nsc2ccc(-n3c(=O)cc(C(F)(F)F)n(C)c3=O)cc12 [Example 526]
RESULT: 0.0

QUERY: Entry to check: Cc1ccc(OC(C)(C)C(=O)OCCCl)c(-c2nsc3ccc(-n4c(=O)cc(C(F)(F)F)n(C)c4=O)cc23)c1 [Example 544]
RESULT: 9.0

---

- System: Echinochloa oryzoides (Ard.) Fritsch.
- experimentalProtocol: Preemergence weed control under flooded paddy conditions, ECHORC (Watergrass (Calif.)); further: meaning of each grade not given here
- Type: in vivo
- particulars: Rate 0.0320 kg/ha; preemergence weeds, flooded paddy; rated three to four weeks after treatment
reportedProperty: herbicidal effect rating, ECHORC
// no unit string in output, number only

QUERY: Item Cn1c(C(F)(F)F)cc(=O)n(-c2ccc3snc(C(=O)Oc4ccccc4)c3c2)c1=O has what recorded herbicidal effect rating, ECHORC?
RESULT: 3.0

QUERY: Entry to check: Cn1c(C(F)(F)F)cc(=O)n(-c2ccc3snc(C(=O)Oc4ccc(F)cc4)c3c2)c1=O
RESULT: 0.0

QUERY: Entry to check: Cn1c(C(F)(F)F)cc(=O)n(-c2ccc3snc(CSCC(=O)NS(C)(=O)=O)c3c2)c1=O
RESULT: 0.0

QUERY: Entry to check: COc1ccc(C)cc1-c1noc2cc(F)c(-n3c(=O)cc(C(F)(F)F)n(C)c3=O)cc12
RESULT: 9.0

QUERY: Entry to check: Cn1c(C(F)(F)F)cc(=O)n(-c2ccc3snc(-c4ccccc4OCC(=O)NS(=O)(=O)CCl)c3c2)c1=O
RESULT: 4.0

QUERY: Entry to check: CC(OS(C)(=O)=O)c1nsc2ccc(-n3c(=O)cc(C(F)(F)F)n(C)c3=O)cc12 (centres unmarked)
RESULT: 1.0

QUERY: Entry to check: Cn1c(C(F)(F)F)cc(=O)n(-c2ccc3snc(CN(C(=O)OC(C)(C)C)S(C)(=O)=O)c3c2)c1=O
RESULT: 0.0

QUERY: Entry to check: Cc1ccc(OCC(=O)NO)c(-c2nsc3ccc(-n4c(=O)cc(C(F)(F)F)n(C)c4=O)cc23)c1
RESULT: 4.0

QUERY: Entry to check: Cn1c(C(F)(F)F)cc(=O)n(-c2ccc3snc(C(N)=O)c3c2)c1=O
RESULT: 9.0

QUERY: Entry to check: CN(O)C(=O)COc1ccccc1-c1nsc2ccc(-n3c(=O)cc(C(F)(F)F)n(C)c3=O)cc12
RESULT: 6.5

QUERY: Entry to check: Cn1c(C(F)(F)F)cc(=O)n(-c2ccc3snc(C(=O)O)c3c2)c1=O
RESULT: 0.0
